Molecular target: T1, MRS221-900 (methionyl-tRNA synthetase without N-terminal GST domain) (human, UniProt P56192 221-900)
T1 sequence: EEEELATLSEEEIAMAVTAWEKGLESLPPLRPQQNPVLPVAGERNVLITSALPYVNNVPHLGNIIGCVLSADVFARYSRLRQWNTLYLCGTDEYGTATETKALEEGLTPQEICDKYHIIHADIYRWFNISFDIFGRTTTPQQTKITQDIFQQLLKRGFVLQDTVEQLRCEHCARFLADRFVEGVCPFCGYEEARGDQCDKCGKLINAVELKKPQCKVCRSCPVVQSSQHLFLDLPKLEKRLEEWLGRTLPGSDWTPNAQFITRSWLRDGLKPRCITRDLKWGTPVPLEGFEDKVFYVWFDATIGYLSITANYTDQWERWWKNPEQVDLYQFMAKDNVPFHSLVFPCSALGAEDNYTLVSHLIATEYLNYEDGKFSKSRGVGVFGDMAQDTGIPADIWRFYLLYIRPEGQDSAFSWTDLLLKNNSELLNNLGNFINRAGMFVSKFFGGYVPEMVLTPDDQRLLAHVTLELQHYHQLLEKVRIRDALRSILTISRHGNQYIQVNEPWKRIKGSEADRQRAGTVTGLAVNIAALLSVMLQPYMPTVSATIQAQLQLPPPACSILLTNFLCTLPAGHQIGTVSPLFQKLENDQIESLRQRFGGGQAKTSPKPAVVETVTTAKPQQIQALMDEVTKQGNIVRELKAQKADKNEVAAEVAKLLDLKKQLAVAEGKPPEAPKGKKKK
Assay: MST; protein labeled with Red-tris-NTA, unlabeled RNA; MST: PBS, 1-100 uM protein, 80 nM 6-FAM-RNA, temperature not stated; pull-down: 50 mM Tris-HCl pH 7.5, 150 mM NaCl, Ni-NTA (yeast total tRNA pool not listed)
Conditions: protein: recombinant; tags: hexa-His; label: none (Results); Methods text says 6-FAM-RNA for this assay too; tRNA fold
Readout kind: pKd
API: returns pKd as number; meaning -log10 of concentration in mol/L.

Provide only the value of recorded pKd for unlabeled synthetic elongator tRNAMet (structured_RNA, none stated (synthetic RNA)) RNA: GCCUCGUUAGCGCAGUAGGUAGCGCGUCAGUCUCAUAAUCUGAAGGUCGUGAGUUCGAUCCUCACACGGGGCA
4.67
